The measurements presented in this section are drawn from patent US11225505B2.

tested on: Klebsiella pneumoniae Kp BM1; type: cell-based; conditions: Kp BM1
Where a SMILES comes first, the peptide text is derived from it. Bridges are numbered along the chain shown (N, C = ends). [ ]: non-standard residue; d: D form. The star is where a group is joined. X64 = O=C(c1noc(-c2ccccc2)n1)*; X4 = O=C(c1cncc(C(F)(F)F)c1)*; X58 = Cn1cc(CC(=O)*)c2ccccc21; X69 = Cn1c(C(=O)*)nc2ccccc21; X28 = Cc1cc(C(=O)*)cc(Cl)n1; X21 = O=C(c1cnc(Cl)cc1Cl)*; X1 = O=C(c1ncc(Cl)cc1Cl)*; X50 = O=C(c1sc(Br)cc1Br)*; X29 = O=C(c1cc(Cl)ccn1)*; Dab = NCC[C@H](N)C(=O)O; Abu = CC[C@H](N)C(=O)O; Dap = NC[C@H](N)C(=O)O
Exercise: state measured Minimum inhibitory concentration for each of the molecules provided.
Give the quantity in µg/mL, number only.

Request the reported Minimum inhibitory concentration associated with CC(C)C[C@H]1NC(=O)[C@H](CCN)NC(=O)[C@@H](NC(=O)[C@H](CN)NC(=O)[C@@H](NC(=O)[C@H](CCN)NC(=O)c2sc(Br)cc2Br)[C@@H](C)O)CCNC(=O)[C@H]([C@@H](C)O)NC(=O)[C@H](CCN)NC(=O)[C@H](CCN)NC(=O)[C@H]([C@@H](C)O)NC1=O [Compound 100] (X50-[Dab]T[Dap][Dab][Dab][dL]T[Dab][Dab]T; lactam 4-C)
0.5

Request the reported Minimum inhibitory concentration associated with CC[C@@H]1NC(=O)[C@@H](CC(C)C)NC(=O)[C@H](CCN)NC(=O)[C@@H](NC(=O)[C@H](CN)NC(=O)[C@@H](NC(=O)[C@H](CCN)NC(=O)c2noc(-c3ccccc3)n2)[C@@H](C)O)CCNC(=O)[C@H]([C@@H](C)O)NC(=O)[C@H](CCN)NC(=O)[C@H](CCN)NC1=O [Compound 81] (X64-[Dab]T[Dap][Dab][Dab][dL][Abu][Dab][Dab]T; lactam 4-C)
0.5

Request the reported Minimum inhibitory concentration associated with CC[C@@H]1NC(=O)[C@@H](CC(C)C)NC(=O)[C@H](CCN)NC(=O)[C@@H](NC(=O)[C@H](CN)NC(=O)[C@@H](NC(=O)[C@H](CCN)NC(=O)c2nc3ccccc3n2C)[C@@H](C)O)CCNC(=O)[C@H]([C@@H](C)O)NC(=O)[C@H](CCN)NC(=O)[C@H](CCN)NC1=O [Compound 57] (X69-[Dab]T[Dap][Dab][Dab][dL][Abu][Dab][Dab]T; lactam 4-C)
0.25

Request the reported Minimum inhibitory concentration associated with CC[C@@H]1NC(=O)[C@@H](CC(C)C)NC(=O)[C@H](CCN)NC(=O)[C@@H](NC(=O)[C@H](CN)NC(=O)[C@@H](NC(=O)[C@H](CCN)NC(=O)c2cnc(Cl)cc2Cl)[C@@H](C)O)CCNC(=O)[C@H]([C@@H](C)O)NC(=O)[C@H](CCN)NC(=O)[C@H](CCN)NC1=O [Compound 2] (X21-[Dab]T[Dap][Dab][Dab][dL][Abu][Dab][Dab]T; lactam 4-C)
0.5

Request the reported Minimum inhibitory concentration associated with CC(C)C[C@H]1NC(=O)[C@H](CCN)NC(=O)[C@@H](NC(=O)[C@H](CN)NC(=O)[C@@H](NC(=O)[C@H](CCN)NC(=O)c2cc(Cl)ccn2)[C@@H](C)O)CCNC(=O)[C@H]([C@@H](C)O)NC(=O)[C@H](CCN)NC(=O)[C@H](CCN)NC(=O)[C@H](C)NC1=O [Compound 97] (X29-[Dab]T[Dap][Dab][Dab][dL]A[Dab][Dab]T; lactam 4-C)
0.25

Request the reported Minimum inhibitory concentration associated with CC[C@@H]1NC(=O)[C@@H](CC(C)C)NC(=O)[C@H](CCN)NC(=O)[C@@H](NC(=O)[C@H](CN)NC(=O)[C@@H](NC(=O)[C@H](CCN)NC(=O)c2cncc(C(F)(F)F)c2)[C@@H](C)O)CCNC(=O)[C@H]([C@@H](C)O)NC(=O)[C@H](CCN)NC(=O)[C@H](CCN)NC1=O [Compound 20] (X4-[Dab]T[Dap][Dab][Dab][dL][Abu][Dab][Dab]T; lactam 4-C)
0.25

Request the reported Minimum inhibitory concentration associated with CC(C)C[C@H]1NC(=O)[C@H](CCN)NC(=O)[C@@H](NC(=O)[C@H](CN)NC(=O)[C@@H](NC(=O)[C@H](CCN)NC(=O)c2ncc(Cl)cc2Cl)[C@@H](C)O)CCNC(=O)[C@H]([C@@H](C)O)NC(=O)[C@H](CCN)NC(=O)[C@H](CCN)NC(=O)[C@H]([C@@H](C)O)NC1=O [Compound 8] (X1-[Dab]T[Dap][Dab][Dab][dL]T[Dab][Dab]T; lactam 4-C)
0.5

Request the reported Minimum inhibitory concentration associated with CC[C@@H]1NC(=O)[C@@H](CC(C)C)NC(=O)[C@H](CCN)NC(=O)[C@@H](NC(=O)[C@H](CN)NC(=O)[C@@H](NC(=O)[C@H](CCN)NC(=O)c2cc(C)nc(Cl)c2)[C@@H](C)O)CCNC(=O)[C@H]([C@@H](C)O)NC(=O)[C@H](CCN)NC(=O)[C@H](CCN)NC1=O [Compound 39] (X28-[Dab]T[Dap][Dab][Dab][dL][Abu][Dab][Dab]T; lactam 4-C)
1

Request the reported Minimum inhibitory concentration associated with CC[C@@H]1NC(=O)[C@@H](CC(C)C)NC(=O)[C@H](CCN)NC(=O)[C@@H](NC(=O)[C@H](CN)NC(=O)[C@@H](NC(=O)[C@H](CCN)NC(=O)Cc2cn(C)c3ccccc23)[C@@H](C)O)CCNC(=O)[C@H]([C@@H](C)O)NC(=O)[C@H](CCN)NC(=O)[C@H](CCN)NC1=O [Compound 62] (X58-[Dab]T[Dap][Dab][Dab][dL][Abu][Dab][Dab]T; lactam 4-C)
0.25

* * *

Exercise: state measured Minimum inhibitory concentration for each of the compounds provided.
tested on: Klebsiella pneumoniae Kp BM1; type: cell-based; conditions: Kp BM1
Where a SMILES comes first, the peptide text is derived from it. Bridges are numbered along the chain shown (N, C = ends). [ ]: non-standard residue; d: D form. The star is where a group is joined. X41 = O=C(c1cc2cc(F)c(F)cc2[nH]1)*; X27 = O=C(c1sc2ccccc2c1Cl)*; X5 = Cc1ccc2nc(C(=O)*)cn2c1; X13 = O=C(c1ccnc(Br)c1)*; X54 = O=C(c1cccc(Cl)n1)*; Dab = NCC[C@H](N)C(=O)O; Abu = CC[C@H](N)C(=O)O; Dap = NC[C@H](N)C(=O)O
Give the quantity in µg/mL, number only.

Request the reported Minimum inhibitory concentration associated with CC(C)C[C@H]1NC(=O)[C@H](CCN)NC(=O)[C@@H](NC(=O)[C@H](CN)NC(=O)[C@@H](NC(=O)[C@H](CCN)NC(=O)c2sc3ccccc3c2Cl)[C@@H](C)O)CCNC(=O)[C@H]([C@@H](C)O)NC(=O)[C@H](CCN)NC(=O)[C@H](CCN)NC(=O)[C@H]([C@@H](C)O)NC1=O [Compound 68] (X27-[Dab]T[Dap][Dab][Dab][dL]T[Dab][Dab]T; lactam 4-C)
0.25

Request the reported Minimum inhibitory concentration associated with CC[C@@H]1NC(=O)[C@@H](CC(C)C)NC(=O)[C@H](CCN)NC(=O)[C@@H](NC(=O)[C@H](CN)NC(=O)[C@@H](NC(=O)[C@H](CCN)NC(=O)c2cc3cc(F)c(F)cc3[nH]2)[C@@H](C)O)CCNC(=O)[C@H]([C@@H](C)O)NC(=O)[C@H](CCN)NC(=O)[C@H](CCN)NC1=O [Compound 60] (X41-[Dab]T[Dap][Dab][Dab][dL][Abu][Dab][Dab]T; lactam 4-C)
0.5

Request the reported Minimum inhibitory concentration associated with CC[C@@H]1NC(=O)[C@@H](CC(C)C)NC(=O)[C@H](CCN)NC(=O)[C@@H](NC(=O)[C@H](CN)NC(=O)[C@@H](NC(=O)[C@H](CCN)NC(=O)c2cn3cc(C)ccc3n2)[C@@H](C)O)CCNC(=O)[C@H]([C@@H](C)O)NC(=O)[C@H](CCN)NC(=O)[C@H](CCN)NC1=O [Compound 49] (X5-[Dab]T[Dap][Dab][Dab][dL][Abu][Dab][Dab]T; lactam 4-C)
0.25

Request the reported Minimum inhibitory concentration associated with CC[C@@H]1NC(=O)[C@@H](CC(C)C)NC(=O)[C@H](CCN)NC(=O)[C@@H](NC(=O)[C@H](CN)NC(=O)[C@@H](NC(=O)[C@H](CCN)NC(=O)c2ccnc(Br)c2)[C@@H](C)O)CCNC(=O)[C@H]([C@@H](C)O)NC(=O)[C@H](CCN)NC(=O)[C@H](CCN)NC1=O [Compound 25] (X13-[Dab]T[Dap][Dab][Dab][dL][Abu][Dab][Dab]T; lactam 4-C)
0.25

Request the reported Minimum inhibitory concentration associated with CC[C@@H]1NC(=O)[C@@H](CC(C)C)NC(=O)[C@H](CCN)NC(=O)[C@@H](NC(=O)[C@H](CN)NC(=O)[C@@H](NC(=O)[C@H](CCN)NC(=O)c2cccc(Cl)n2)[C@@H](C)O)CCNC(=O)[C@H]([C@@H](C)O)NC(=O)[C@H](CCN)NC(=O)[C@H](CCN)NC1=O [Compound 43] (X54-[Dab]T[Dap][Dab][Dab][dL][Abu][Dab][Dab]T; lactam 4-C)
0.25
